# studyTarget: Ribosomal protein S6 kinase alpha-5 (Homo sapiens) (UniProt O75582)
# Sequence (O75582 whole entry, looked up): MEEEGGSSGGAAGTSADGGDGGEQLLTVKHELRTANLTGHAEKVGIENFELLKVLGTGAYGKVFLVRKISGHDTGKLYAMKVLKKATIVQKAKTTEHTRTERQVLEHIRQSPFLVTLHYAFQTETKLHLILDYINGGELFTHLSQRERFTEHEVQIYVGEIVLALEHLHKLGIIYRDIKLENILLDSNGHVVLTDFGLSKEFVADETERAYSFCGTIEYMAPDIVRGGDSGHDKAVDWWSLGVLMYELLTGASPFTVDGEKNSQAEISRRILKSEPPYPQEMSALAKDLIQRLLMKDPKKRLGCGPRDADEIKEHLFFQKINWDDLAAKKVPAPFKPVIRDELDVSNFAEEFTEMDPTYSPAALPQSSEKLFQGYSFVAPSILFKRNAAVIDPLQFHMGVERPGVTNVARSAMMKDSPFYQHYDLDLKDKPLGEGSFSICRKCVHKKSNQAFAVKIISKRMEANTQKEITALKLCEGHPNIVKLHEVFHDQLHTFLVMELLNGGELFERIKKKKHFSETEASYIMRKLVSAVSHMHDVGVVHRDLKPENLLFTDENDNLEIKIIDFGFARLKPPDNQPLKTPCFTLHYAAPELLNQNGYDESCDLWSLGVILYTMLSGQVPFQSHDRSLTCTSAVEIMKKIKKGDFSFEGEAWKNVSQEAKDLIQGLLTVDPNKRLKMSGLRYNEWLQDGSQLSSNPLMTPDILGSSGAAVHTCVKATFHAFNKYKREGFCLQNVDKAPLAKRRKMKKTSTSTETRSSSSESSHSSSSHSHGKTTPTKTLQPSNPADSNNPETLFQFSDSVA
# experimentalSetup: at 10 µM
measuredAttribute: residual activity (%)
Answer in %, number only, no unit symbol.

Quick note, residual activity for Nc1ncnc2c1c(-c1ccc(Oc3ccccc3)cc1)cn2C1CCCC1 landed at 67

# residual activity of N#C/C(=C\c1ccc(O)c(O)c1)C(=O)NCc1ccccc1 = 57

Note to self: residual activity recorded for NC(=O)c1ccc(-c2nc(-c3ccc4c(c3)OCCO4)c(-c3ccccn3)[nH]2)cc1 was 124

Reported residual activity for COc1cc2nccc(Oc3ccc(NC(=O)Nc4cc(C)on4)c(Cl)c3)c2cc1OC was 80

residual activity recorded for this compound, COc1ccc(CNC(=O)Nc2ncc([N+](=O)[O-])s2)cc1 , is 129

# compound CCCCc1c(-c2ccc(OC)cc2)[nH]c2nccnc12 ; its residual activity = 117
